tested on: AR 1.0 cells; assay: Potentiation index with doxorubicin titration; type: cell-based, mouse; settings: Table C2, RMA 300 nM
Kindly apply the following: True if Potentiation Index at RMA concentration 300 nM is less than 100, False in every other case.

Inquiry: Input COc1cc2c(cc1OC)CN(CCNC(=O)c1ccccc1NC(=O)c1ccc3ccccc3c1)CC2 [compound 9295] ; condition: Potentiation Index at RMA concentration 300 nM strictly below 100. Does it hold?
Reply text: True

Inquiry: Input COc1cc2c(cc1OC)CN(CCNC(=O)c1ccccc1NC(=O)c1ccc(Cc3ccccc3)cc1)CC2 [compound 9442] ; condition: Potentiation Index at RMA concentration 300 nM strictly below 100. Does it hold?
Reply text: True

Inquiry: Input COc1cc2c(cc1OC)CN(CCNC(=O)c1ccccc1NC(=O)c1ccc(OC3CCCCC3)cc1)CC2 [compound 9459] ; condition: Potentiation Index at RMA concentration 300 nM strictly below 100. Does it hold?
Reply text: True

Inquiry: Input COc1cc2c(cc1OC)CN(CCc1ccc(NC(=O)c3ccccc3NC(=O)c3ccc(C(C)C)cc3)cc1)CC2 [compound 9447] ; condition: Potentiation Index at RMA concentration 300 nM strictly below 100. Does it hold?
Reply text: True

Inquiry: Input COc1cc2c(cc1OC)CN(CCc1ccc(NC(=O)c3ccccc3NC(=O)c3cnc4ccccc4c3)cc1)CC2 [compound 9544] ; condition: Potentiation Index at RMA concentration 300 nM strictly below 100. Does it hold?
Reply text: False

Inquiry: Input COc1cc2c(cc1OC)CN(CCNC(=O)c1ccccc1NC(=O)c1ccc(OCc3ccccc3)cc1)CC2 [compound 9460] ; condition: Potentiation Index at RMA concentration 300 nM strictly below 100. Does it hold?
Reply text: True

Inquiry: Input COc1cc2c(cc1OC)CN(CCc1ccc(NC(=O)c3ccccc3NC(=O)c3ccc(F)cc3)cc1)CC2 [compound 9501] ; condition: Potentiation Index at RMA concentration 300 nM strictly below 100. Does it hold?
Reply text: False

Inquiry: Input COc1cc2c(cc1OC)CN(CCc1ccc(NC(=O)c3ccccc3NC(=O)c3ccc4ccccc4c3)cc1)CC2 [compound 9476] ; condition: Potentiation Index at RMA concentration 300 nM strictly below 100. Does it hold?
Reply text: True

Inquiry: Input COc1cc2c(cc1OC)CN(CCc1ccc(NC(=O)c3cc(C)ccc3NC(=O)c3cnc4ccccc4n3)cc1)CC2 [compound 9543] ; condition: Potentiation Index at RMA concentration 300 nM strictly below 100. Does it hold?
Reply text: False

Inquiry: Input COc1cc2c(cc1OC)CN(CCc1ccc(NC(=O)c3ccccc3NC(=O)c3ccc(Cl)c(Cl)c3)cc1)CC2 [compound 9536] ; condition: Potentiation Index at RMA concentration 300 nM strictly below 100. Does it hold?
Reply text: False

Inquiry: Input COc1cc2c(cc1OC)CN(CCc1ccc(NC(=O)c3ccccc3NC(=O)c3ccccc3F)cc1)CC2 [compound 9489] ; condition: Potentiation Index at RMA concentration 300 nM strictly below 100. Does it hold?
Reply text: False

Inquiry: Input COc1cc2c(cc1OC)CN(CCc1ccc(NC(=O)c3ccccc3NC(=O)c3cccc(C)c3)cc1)CC2 [compound 9503] ; condition: Potentiation Index at RMA concentration 300 nM strictly below 100. Does it hold?
Reply text: True

Inquiry: Input COc1cc2c(cc1OC)CN(CCc1ccc(NC(=O)c3ccccc3NC(=O)c3ccccc3OC)cc1)CC2 [compound 9477] ; condition: Potentiation Index at RMA concentration 300 nM strictly below 100. Does it hold?
Reply text: True

Inquiry: Input COc1cc2c(cc1OC)CN(CCNC(=O)c1ccccc1NC(=O)c1ccc(C3CCCCC3)cc1)CC2 [compound 9331] ; condition: Potentiation Index at RMA concentration 300 nM strictly below 100. Does it hold?
Reply text: True

Inquiry: Input COc1cc2c(cc1OC)CN(CCc1ccc(NC(=O)c3ccccc3NC(=O)c3ccccc3Cl)cc1)CC2 [compound 9494] ; condition: Potentiation Index at RMA concentration 300 nM strictly below 100. Does it hold?
Reply text: True
